Data provenance: ChEMBL document CHEMBL1148297

# target-entity: Glutamate receptor ionotropic, kainate
# assay-procedure: Inhibition concentration towards low-affinity Ionotropic glutamate receptor kainate of rat cortical membranes by using [3H]-KA as radioligand
readout-kind: IC50 (µM)

Answered cases to consult:
O=Cc1ccn(-c2cc3c(cc2[N+](=O)[O-])nc(O)c2nc(C(=O)O)nn23)c1: 1.2
O=C(O)c1ccn(-c2cc3c(cc2C(F)(F)F)[nH]c(=O)c2nc(C(=O)O)nn23)c1: 2.6
O=C(O)c1nc2c(=O)[nH]c3cc(C(F)(F)F)c(-n4cnnc4)cc3n2n1: 1.8

A = O=Cc1ccn(-c2cc3c(cc2C(F)(F)F)[nH]c(=O)c2nc(C(=O)O)nn23)c1
B = O=C(O)c1nc2c(=O)[nH]c3cc([N+](=O)[O-])c(-n4cccc4)cc3n2n1
Query block: Given A and B , report the one with the higher recorded IC50. State the label of the item chosen.
Result block: B

###

# target-entity: Glutamate receptor ionotropic, AMPA (Rattus norvegicus, UniProt P19490+P19491+P19492+P19493)
pKi: −log10 of the molar value.
readout-kind: pKi

Take a look at these entries with their results.
CCOC(=O)c1nc2c(O)nc3cc([N+](=O)[O-])c(-n4ccc(C(=O)O)c4)cc3n2n1: 7.17
O=C(O)c1nc2c(O)nc3cc(C(F)(F)F)c(-n4ccnc4)cc3n2n1: 6.92
O=Cc1ccn(-c2cc3c(cc2[N+](=O)[O-])nc(O)c2nc(C(=O)O)nn23)c1: 6.74
CCOC(=O)c1nc2c(O)nc3cc(C(F)(F)F)c(-n4ccc(C=O)c4)cc3n2n1: 6.43
O=C(O)c1ccn(-c2cc3c(cc2[N+](=O)[O-])nc(O)c2nc(C(=O)O)nn23)c1: 7.72

a = Nc1cc2c(cc1[N+](=O)[O-])[nH]c(=O)c1nc(C(=O)O)nn12
b = O=C(O)c1nc2c(=O)[nH]c3cc([N+](=O)[O-])c(-n4cccc4)cc3n2n1
c = CCOC(=O)c1nc2c(O)nc3cc(C(F)(F)F)c(-n4ccnc4)cc3n2n1
d = CCOC(=O)c1nc2c(O)nc3cc([N+](=O)[O-])c(N)cc3n2n1
e = CCOC(=O)c1nc2c(O)nc3cc(C(F)(F)F)c(-n4cnnc4)cc3n2n1
Query block: Place the items in sequence of falling pKi. List each label, following the requested order.
Result block: b, e, c, a, d
(b: 7.06, e: 6.70, c: 6.46, a: 6.15, d: 5.92)

A = CCOC(=O)c1nc2c(=O)[nH]c3cc([N+](=O)[O-])c(NC(C)=O)cc3n2n1
B = CCOC(=O)c1nc2c(=O)[nH]c3cc([N+](=O)[O-])c(-n4cccc4)cc3n2n1
C = O=C(O)c1nc2c(O)nc3cc(C(F)(F)F)c(-n4cccc4)cc3n2n1
Query block: Please rank these compounds by pKi in descending order. Reply with the labels, ordered as the question asks.
Result block: C, B, A

###

# target-entity: Glutamate receptor ionotropic, NMDA 1 (Rattus norvegicus, UniProt P35439)
readout-kind: Ki (µM)

Answered examples (5):
O=C(O)c1nc2c(=O)[nH]c3cc([N+](=O)[O-])c(-n4cccc4)cc3n2n1: 65
O=C(O)c1nc2c(O)nc3cc(C(F)(F)F)c(-n4ccnc4)cc3n2n1: 34
O=C(O)c1nc2c(=O)[nH]c3cc(C(F)(F)F)c(-n4cnnc4)cc3n2n1: 3.6
O=C(O)c1ccn(-c2cc3c(cc2C(F)(F)F)[nH]c(=O)c2nc(C(=O)O)nn23)c1: 35
CCOC(=O)c1nc2c(O)nc3cc(C(F)(F)F)c(-n4ccnc4)cc3n2n1: 54

I = CCOC(=O)c1nc2c(O)nc3cc(C(F)(F)F)c(-n4ccc(C=O)c4)cc3n2n1
II = Nc1cc2c(cc1C(F)(F)F)nc(O)c1nc(C(=O)O)nn12
III = O=C(O)c1nc2c(=O)[nH]c3cc(C(F)(F)F)c([N+](=O)[O-])cc3n2n1
IV = CCOC(=O)c1nc2c(=O)[nH]c3cc(C(F)(F)F)c(N4C(=O)C=C(C=O)C4=O)cc3n2n1
V = O=C(O)c1cc(O)c2c(Cl)cc(Cl)cc2n1
Query block: Order by Ki, ascending. Sort the labels as requested; that list is your answer.
Result block: V, II, III, IV, I
(V: 0.09 µM, II: 1.5 µM, III: 4.4 µM, IV: 10.9 µM, I: 71 µM)
